# System: Escherichia coli
# Assay Protocol: Maximum NaCl molar concentration that showed 50% bacterial growth in Escherichia coli ATCC 25922 at minimum media (MM)
# Format: functional
Readout Kind: Max salt tolerance
Give the figure only, with no unit attached.

The cases that follow already have their Max salt tolerance on record.
>>> number("C[N+]1(CS(=O)(=O)[O-])CCCCC1")
0.13
>>> number("C[N+](C)(C)CP(=O)([O-])O")
0.33
>>> number("C[N+]1(CS(=O)(=O)[O-])CCCC1")
0.13
>>> number("CCC(=O)Nc1ccc(S(=O)(=O)[N-]C(=O)C[N+](C)(C)C)cc1")
0.4
>>> number("C[N+](C)(C)CC(=O)Nc1ccc(S(=O)(=O)NC(=O)C[N+](C)(C)C)cc1.[Cl-].[Cl-]")
0.5
>>> number("C[N+](C)(C)CC(=O)[N-]S(=O)(=O)c1ccc(NC(=O)CI)cc1")
0.1
>>> number("C[N+](C)(C)CC(=O)NS(=O)(=O)c1ccc(N)cc1.[Cl-]")
0.5
>>> number("C[N+](C)(C)CC(=O)[N-]S(=O)(=O)c1ccccc1")
0.5

[Q] I would be grateful if you could share the reported Max salt tolerance for C[N+]1(CS(=O)(=O)[O-])CCOCC1 .
[A] 0.2

[Q] I would be grateful if you could share the reported Max salt tolerance for Br.C[N+](C)(C)CC(=O)[N-]S(=O)(=O)c1ccc(NC(=O)CBr)cc1 .
[A] 0.1

[Q] I would be grateful if you could share the reported Max salt tolerance for C[N+](C)(C)CS(=O)(=O)[O-] .
[A] 0.27

====

Entries and their Max salt tolerance values follow.
# Test system: Escherichia coli
# Assay Protocol: Maximum NaCl molar concentration that showed 50% bacterial growth in Escherichia coli ATCC 25922 at minimum media (MM)
# Format: functional
Give the figure only, with no unit attached.

>>> number("CC(=O)Nc1ccc(S(=O)(=O)[N-]C(=O)C[N+](C)(C)C)cc1")
0.4

[Q] Query the reported Max salt tolerance for Escherichia coli; item: C[N+](C)(C)CC(=O)Nc1ccc(S(N)(=O)=O)cc1.[Cl-]
[A] 0.5

[Q] Query the reported Max salt tolerance for Escherichia coli; item: C[N+](C)(C)CC(=O)[N-]S(=O)(=O)c1ccc(NC(=O)CCl)cc1
[A] 0.1
